Ref: patent US7321046B2

test system: 1A9/Ptx22 (Ala364 −> Thr) β-tubulin mutant cells; experiment: Antiproliferative assay (GI50, MTS), paclitaxel-resistant clone; type: cell-based, human; conditions: Homo sapiens, 1A9/ptx-22, 72 h, read-out: GI50 ± S.D., 1A9/Ptx22 (Ala364 −> Thr), 72 h incubation
Lab note: compare GI50 with 7 nM, writing Met if less and Not met if equal or more.

{"compound": "C=CC=CC(C)C1OC(=O)C=CC=CC(C)C(O)CC(O)C=CC(C)C(O)C(C)CC(C)CCC(O)C1C (stereo not drawn)", "subject_of_test": "1A9/Ptx22 (Ala364 −> Thr) β-tubulin mutant cells", "class_name": "Not met"}
{"compound": "C=C/C=C\\[C@H](C)[C@H](O)[C@@H](C)[C@H](O)CC[C@H](C)C[C@H](C)[C@@H](O)[C@@H](C)/C=C\\[C@@H](O)C[C@H](O)[C@H](C)/C=C/C=C\\C(=O)OC", "subject_of_test": "1A9/Ptx22 (Ala364 −> Thr) β-tubulin mutant cells", "class_name": "Not met"}
{"compound": "C=C/C=C\\[C@H](C)[C@H](O)[C@@H](C)[C@H](CC[C@H](C)C[C@@H](C)[C@@H](O[Si](C)(C)C(C)(C)C)[C@@H](C)/C=C\\[C@H](C[C@H](O[Si](C)(C)C(C)(C)C)[C@@H](C)/C=C/C=C\\C(=O)O)O[Si](C)(C)C(C)(C)C)O[Si](C)(C)C(C)(C)C", "subject_of_test": "1A9/Ptx22 (Ala364 −> Thr) β-tubulin mutant cells", "class_name": "Not met"}
{"compound": "C=CC=CC(C)C1OC(=O)C=CC=CC(C)C(O)CC(O)C=CC(C)C(O)C(C)CCCCC(O)C1C (stereo not drawn)", "subject_of_test": "1A9/Ptx22 (Ala364 −> Thr) β-tubulin mutant cells", "class_name": "Met"}
{"compound": "C=C/C=C\\[C@H](C)[C@@H]1OC(=O)/C=C\\C=C\\[C@@H](C)[C@@H](O)C[C@H](O)/C=C\\[C@H](C)[C@H](O)[C@@H](C)C[C@@H](C)CC[C@@H](O)[C@@H]1C [dictyostatin-1, reference compound]", "subject_of_test": "1A9/Ptx22 (Ala364 −> Thr) β-tubulin mutant cells", "class_name": "Met"}
